Assay: Inhibition of recombinant Plasmodium falciparum dUTPase expressed in Escherichia coli BL21 (DE3) using dUTP as substrate by spectrophotometric analysis
I'd appreciate it if you could supply pKi values for the items below.
FYI, pKi means -log10 of a concentration in mol per litre.

# input Quick one: pKi of O=c1ccn([C@H]2C[C@H](O)[C@@H](CNC(c3ccccc3)c3ccccc3)O2)c(=O)[nH]1 ?
# output 6.70

# input Quick check: pKi of O=c1ccn(CCCCNC(c2ccccc2)c2ccccc2)c(=O)[nH]1 ?
# output 5.24

# input Entry under review: O=c1ccn(CCCNC(c2ccccc2)c2ccccc2)c(=O)[nH]1 . Reported pKi?
# output 5.24

* * *

What Ki was measured for each of the following?
Target: Deoxyuridine 5'-triphosphate nucleotidohydrolase, mitochondrial (Homo sapiens)
Sequence (P33316 whole entry): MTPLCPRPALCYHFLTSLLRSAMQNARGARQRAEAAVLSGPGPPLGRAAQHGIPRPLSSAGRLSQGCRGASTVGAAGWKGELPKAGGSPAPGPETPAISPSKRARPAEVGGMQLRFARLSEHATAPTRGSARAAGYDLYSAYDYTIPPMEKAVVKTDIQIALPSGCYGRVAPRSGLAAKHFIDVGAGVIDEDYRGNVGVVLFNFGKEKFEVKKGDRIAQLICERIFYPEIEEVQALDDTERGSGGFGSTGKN
Assay: Inhibition of recombinant human dUTPase expressed in Escherichia coli BL21 (DE3) using dUTP as substrate by spectrophotometric analysis
Write it as a number; the unit µM goes unstated.

# input Consider the compound shown here: O=C(NCCCn1ccc(=O)[nH]c1=O)C(c1ccccc1)(c1ccccc1)c1ccccc1 What is its recorded Ki?
# output 1000

# input Look up Ki for this compound: O=c1ccn(CCCNC(c2ccccc2)c2ccccc2)c(=O)[nH]1
# output 10

# input Ki for O=C(c1ccccc1)n1c(=O)ccn(CCCNC(=O)C(c2ccccc2)(c2ccccc2)c2ccccc2)c1=O ?
# output 1000

# input Item under review: O=c1ccn(CCCCNC(c2ccccc2)c2ccccc2)c(=O)[nH]1 . Reported Ki?
# output 63

# input Give the measured Ki of O=C(CCCn1ccc(=O)[nH]c1=O)NC(c1ccccc1)(c1ccccc1)c1ccccc1 .
# output 1000

# input What value of Ki has been recorded for this entry: O=C(CCCn1ccc(=O)[nH]c1=O)NC(c1ccccc1)c1ccccc1
# output 1000

# input May I ask what Ki has been recorded for O=c1ccn(CCCCOC(c2ccccc2)c2ccccc2)c(=O)[nH]1 ?
# output 49

# input Item under review: O=C(O)CCCn1ccc(=O)[nH]c1=O . Reported Ki?
# output 1000

# input I'd like to know its Ki. The compound in question is O=C(NCCCO)C(c1ccccc1)c1ccccc1
# output 1000

* * *

Assay: Selectivity index, ratio of Ki for human dUTPase to Ki for recombinant Plasmodium falciparum dUTPase
Please provide measured Ratio Ki for the entries that follow.
Write the number on its own, no unit after it.

# input // returns reported Ratio Ki for input O=C(O)CCCn1ccc(=O)[nH]c1=O
# output 400

# input compound: O=C(NCCCO)C(c1ccccc1)c1ccccc1 ; wanted: its Ratio Ki
# output 13

# input Requested read-out: Ratio Ki. Entry: O=C(NCCCO)C(c1ccccc1)(c1ccccc1)c1ccccc1
# output 1

# input What does the record list as Ratio Ki for O=C(c1ccccc1)n1c(=O)ccn(CCCNC(=O)C(c2ccccc2)(c2ccccc2)c2ccccc2)c1=O ?
# output 56

* * *

Test: Inhibition of recombinant Plasmodium falciparum dUTPase expressed in Escherichia coli BL21 (DE3) using dUTP as substrate by spectrophotometric analysis
Experimental endpoint: pKi
Give only the number. pKi is defined as minus log10 of concentration in molar units.

# input Query: pKi; subject: O=c1ccn(CCCCOC(c2ccccc2)c2ccccc2)c(=O)[nH]1
# output 6.30

# input Return reported pKi; argument: O=c1ccn([C@H]2C[C@H](O)[C@@H](CNC(c3ccccc3)(c3ccccc3)c3ccccc3)O2)c(=O)[nH]1
# output 6.70

meta.source: ChEMBL document CHEMBL2417361
